- TEST_PROTOCOL: Spectrophotometric pH-metric titrations of Ga^3+:ligand systems (stability constants, pGa, speciation)
- Assay type: physicochemical
- TEST_CONTEXT: Ga^3+ complex species, pH 7.4; ** possible formation of gallium hydroxide species

| SMILES_REPRESENTATION | Prevailing Species (pH 7.4) |
| --- | --- |
| COc1cc(/C=C/C(=O)C(CCCN2C(=O)c3ccccc3C2=O)C(=O)/C=C/c2ccc(O)c(OC)c2)ccc1O | [Ga(H2L)2]^+ |
| O=C(/C=C/c1ccc(O)cc1)C(CCCN1C(=O)c2ccccc2C1=O)C(=O)/C=C/c1ccc(O)cc1 | [Ga(H2L)2]^+ |

Cited source: paper PMC9321647
